# maps each entry to its Herbicidal activity with respect to [%] VERPE
system: VERPE: Veronica persica; assay: Pre-emergence herbicidal effect; type: in vivo; conditions: application rate 320 g/ha, scored visually after 3 weeks, 100% = plants have died, 0% = like control plants
Kindly provide the numeric value in % only, without the unit symbol.

[
  {
    "MOLECULE": "CC(=O)c1nnc(N[C@@H]2CCc3ccccc32)nc1N",
    "NUMBER": 90
  },
  {
    "MOLECULE": "N#Cc1nnc(NC2CCOc3ccccc32)nc1N (racemic)",
    "NUMBER": 100
  },
  {
    "MOLECULE": "CC(C)(C)c1nnc(N[C@@H]2CCCc3ccccc32)nc1N",
    "NUMBER": 100
  },
  {
    "MOLECULE": "Cc1ccc2c(c1)[C@H](Nc1nnc([S+](C)[O-])c(N)n1)CCC2 (some centres unmarked)",
    "NUMBER": 100
  }
]

Then this molecule:
State its Herbicidal activity with respect to [%] VERPE for this molecule: CS(=O)(=O)c1nnc(NC2c3ccccc3CC2O)nc1N (centres unmarked)
90
